Assay: TOX21_p53_BLA_p3_viability: Viability Assessment in the Tox21 HCT-116 p53 Agonism Beta-lactamase Assay, Phase 3 (AID 2283593);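 further: cells exposed to compound for 16 h before reading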
Results filed as inconclusive are left out. Activity calls are given as the source filed them. How the source made its calls: active means hit-call score of the fitted dose curve at least 0.9, where 1 is the maximum; inconclusive means response in the unintended direction; inactive means score below 0.9.
Give one outcome, nothing more. List: active, inactive

## Task For CCOC(=O)C(C)O (centres undefined) , what call appears in the results of this test?
## Result inactive

## Task What was the test verdict on `Oc1ccc(N=Nc2ccccc2)cc1` ?
## Result active

## Task Each compound tested received a call. Report the one for `Cc1ccc(/C(=C\CN2CCCC2)c2cccc(/C=C/C(=O)O)n2)cc1` .
## Result inactive

## Task I would be grateful if you could indicate the recorded call for `O=C(OC(=O)c1ccccc1)c1ccccc1` .
## Result inactive

## Task Assay result, entry `COc1ccc2cc([C@H](C)C(=O)O)ccc2c1` — outcome?
## Result inactive

## Task Which outcome was assigned to `Nc1c(N=Nc2ccc(-c3ccc(N=Nc4cc(S(=O)(=O)O)c5ccccc5c4N)cc3)cc2)cc(S(=O)(=O)O)c2ccccc12` in this test?
## Result inactive

## Task Please let me know the test result on file for `CC(=O)CC(=O)Nc1ccc2[nH]c(=O)[nH]c2c1` .
## Result inactive

## Task Please share the test call associated with `O=C(O)Cc1sc(-c2ccccc2)nc1-c1ccc(Cl)cc1` .
## Result inactive

## Task Outcome? `CC(=O)N1C[C@H](O)C[C@H]1C(=O)O`
## Result inactive

## Task Please let me know the test result on file for `C[C@@H](CN1CC(=O)NC(=O)C1)N1CC(=O)NC(=O)C1` .
## Result inactive

## Task Tell me the assay call for `CC1(C)O[C@H]2CC(=O)OC[C@]23[C@H]2CC[C@@]4(C)[C@H](c5ccoc5)OC(=O)[C@H]5O[C@]54[C@]2(C)C(=O)C[C@@H]13` please.
## Result inactive

## Task Any idea what this test logged for `O=P(O)(OCc1ccccc1)OCc1ccccc1` ?
## Result inactive

## Task Entry `CCCCCCCCCCCCCCCCCCO` : call = ?
## Result inactive

## Task Check the results log: what was the call for `CN[C@@H]1[C@@H](O[C@H]2O[C@H](CO)[C@@H](N)[C@H](O)[C@H]2O)O[C@H]2C[C@@H](N)[C@@H](O[C@H]3[C@H](O)[C@@H](O)[C@H](N)C[C@@H]3N)O[C@@H]2[C@@H]1O` ?
## Result inactive

## Task Give the logged outcome of this assay for the following compound: `CC(C)(C)OC=O`
## Result inactive

## Task Could you check what this test reported for `O=C(NCCO[N+](=O)[O-])c1cccnc1` ?
## Result inactive

## Task Please share the test call associated with `Nc1nc2ccc(OC(F)(F)F)cc2s1` .
## Result inactive

## Task Record lookup: outcome of this test for `CCN(C=O)CC` ?
## Result inactive

## Task Just curious, what result did `O=C(O)CCCC/C=C(\c1ccccc1)c1cccnc1` get here?
## Result inactive

## Task How was `COc1cc2c(cc1OC)CC(=O)N(CCCN(C)C[C@H]1Cc3cc(OC)c(OC)cc31)CC2` classified in this test?
## Result inactive

## Task What call does the record list for `CC(C)Oc1ccc2c(=O)c(-c3ccccc3)coc2c1` ?
## Result inactive

## Task Each compound tested received a call. Report the one for `COc1cc(C)c(Cc2cnc(N)nc2N)cc1OC` .
## Result inactive

## Task Hi, do you know how `COc1ccc(-c2noc(CC(=O)O)c2-c2ccc(OC)cc2)cc1` came out in this test?
## Result inactive

## Task Please state the recorded outcome for this compound: `Nc1cc(C(=O)O)ccc1Cl`
## Result inactive
